ASSAY_TARGET: Trypsin from bovine pancreas (Bos taurus)
Sequence (P00760 24-246): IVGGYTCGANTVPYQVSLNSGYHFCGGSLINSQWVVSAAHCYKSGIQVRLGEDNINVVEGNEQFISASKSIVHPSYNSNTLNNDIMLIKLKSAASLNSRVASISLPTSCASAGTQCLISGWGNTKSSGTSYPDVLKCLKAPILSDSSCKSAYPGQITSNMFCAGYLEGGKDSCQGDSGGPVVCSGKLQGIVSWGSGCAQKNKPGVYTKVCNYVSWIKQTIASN
Square brackets hold non-standard residues; d marks the D form. Peptide text beside a SMILES is read from it. d(hPhe) = N[C@H](CCc1ccccc1)C(=O)O; dPhLac = O=C(O)[C@H](O)Cc1ccccc1
RECORDED_ENDPOINT: IC50

>  <COMPOUND>
COC(=O)[C@@H](CCCNC(=N)N)NC(=O)[C@H]1CCCN1C(=O)[C@@H](CCc1ccccc1)NC(=O)[C@H](O)Cc1ccccc1 [Compound 21a] (H-[dPhLac][d(hPhe)][dP][dR]-OMe)

>  <RESULT_VALUE>
4.2 µM

$$$$

* * *

Catalogue of log10 Ki values
ASSAY_TARGET: Thrombin from human plasma (Homo sapiens, UniProt P00734)
Construct: Thrombin from human plasma; purchased Sigma; host or cells: human plasma
PROTOCOL_SUMMARY: Enzyme amidolytic assay, thrombin inhibition (chromogenic substrate S-2238)
Assay type: biochemical
SETTINGS: Ki Thrombin, S-2238 substrate, 25 °C, Cheng and Prusoff
RECORDED_ENDPOINT: log10 Ki (log10 of the value in µM)

>  <COMPOUND>
COC(=O)C(CCCNC(=N)N)NC(=O)C1Cc2ccccc2N1C(=O)C(CCc1ccccc1)NC(=O)C(O)Cc1ccc(O)cc1 (mixture of isomers) [Compound 11e]

>  <log10 Ki>
1.48

$$$$
>  <COMPOUND>
N=C(N)NCCC[C@@H](CO)NC(=O)[C@@H]1Cc2ccccc2N1C(=O)[C@@H](Cc1ccccc1)NC(=O)[C@H](O)Cc1ccccc1 (single isomer, unassigned) [Compound 11i]

>  <log10 Ki>
2.23

$$$$
>  <COMPOUND>
COC(=O)C(CCCNC(=N)N)NC(=O)C1Cc2ccccc2N1C(=O)C(CCc1ccccc1)NC(=O)C(O)Cc1ccc(O)cc1 (mixture of isomers) [Compound 11k]

>  <log10 Ki>
1.53

$$$$
>  <COMPOUND>
COC(=O)[C@H](CCCNC(=N)N)NC(=O)[C@@H]1Cc2ccccc2N1C(=O)[C@@H](Cc1ccccc1)NC(=O)[C@H](O)Cc1ccccc1 (single isomer, unassigned) [Compound 11g]

>  <log10 Ki>
1.70

$$$$
>  <COMPOUND>
N=C(N)NCCC[C@@H](CO)NC(=O)[C@H]1Cc2ccccc2N1C(=O)[C@@H](CCc1ccccc1)NC(=O)[C@H](O)Cc1ccccc1 (single isomer, unassigned) [Compound 11d]

>  <log10 Ki>
1.04

$$$$

Each recorded value in this set is attributed to paper PMC6266488.
